FYI, the data here is from patent US6972287B1.

target: Aβ (1-42) (Homo sapiens, UniProt P05067); construct: Required Aβ (1-42) (California Peptide) was dried from its hexafluoroisopropanol (HFIP) stock solution; purchased California Peptide; assay: BATYM assay (Aβ (1-42) aggregation, Thioflavin T fluorescence); assay type: biochemical; conditions: Aβ 1-42 final concentration 100 μM, 37° C., 1 day, letter = synthetic lot
Sequence (P05067 672-713 limits assumed): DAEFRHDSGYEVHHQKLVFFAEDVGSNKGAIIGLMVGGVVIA
Please assign No whenever IC50 is at or above 50 µM, and Yes whenever it is below.

Is IC50 strictly under 50 µM for the entry O=C(O)c1cc([N+](=O)[O-])cc([N+](=O)[O-])c1Nc1ccc(CCCCc2ccc(Cl)c(Cl)c2)cc1 ?
Yes

Is IC50 strictly under 50 µM for the entry CCN(CC)c1ccc(CCCc2ccc(N(CC)c3ccccc3C(=O)O)cc2)cc1 ?
No
